molecular target: Acetylcholinesterase (Electrophorus electricus, UniProt O42275); assay: Inhibition of electric eel AChE using acetylthiocholine iodide as substrate preincubated for 5 mins followed by substrate addition measured after 2 mins by Ellman's method
Sequence (O42275 whole entry): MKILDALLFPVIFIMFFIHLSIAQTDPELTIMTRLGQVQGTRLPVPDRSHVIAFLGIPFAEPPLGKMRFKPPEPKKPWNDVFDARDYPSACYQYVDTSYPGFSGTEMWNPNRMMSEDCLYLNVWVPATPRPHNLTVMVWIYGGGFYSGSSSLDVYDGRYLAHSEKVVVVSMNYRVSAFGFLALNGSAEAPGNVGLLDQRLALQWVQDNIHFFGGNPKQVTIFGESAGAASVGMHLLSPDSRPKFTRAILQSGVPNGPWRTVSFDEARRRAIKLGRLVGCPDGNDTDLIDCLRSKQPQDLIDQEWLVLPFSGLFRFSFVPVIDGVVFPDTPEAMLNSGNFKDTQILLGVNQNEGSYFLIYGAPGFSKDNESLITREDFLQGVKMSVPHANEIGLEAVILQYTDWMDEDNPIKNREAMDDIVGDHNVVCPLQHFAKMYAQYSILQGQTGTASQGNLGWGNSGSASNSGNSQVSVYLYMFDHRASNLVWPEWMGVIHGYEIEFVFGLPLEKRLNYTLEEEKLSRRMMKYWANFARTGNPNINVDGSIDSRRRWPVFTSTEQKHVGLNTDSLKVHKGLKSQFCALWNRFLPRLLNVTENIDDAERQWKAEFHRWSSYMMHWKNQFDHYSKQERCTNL
OBSERVABLE: pIC50
FYI, pIC50 means -log10 of a concentration in mol per litre.

Task: Hi! What's the reported pIC50 for CCOC(=O)Nc1ccc(N2CCN(c3ccccc3OC)CC2)cc1 on Acetylcholinesterase (Electrophorus electricus, UniProt O42275)?
Output: 7.03

---

Here's what we have: pKi numbers for Carbonic anhydrase 1 (Homo sapiens, UniProt P00915).
The quantity pKi is defined as the negative base-10 logarithm of the molar concentration.

* COc1cccc2c1CCC(NC(=O)OCc1ccccc1)C2 (configuration not stated) | 8.23

Now consider the entry below.
Task: Find pKi (Carbonic anhydrase 1 (Homo sapiens, UniProt P00915)) for the entry COc1cc2c(c(OC)c1)CC(NC(=O)OCc1ccccc1)C2 (configuration not stated)
Output: 8.25

Entry source: ChEMBL document CHEMBL5214927
